These data points were gathered from ChEMBL document CHEMBL1201862.

Measured GI50 accompanies every entry in the list below.
- Test system: EKVX
- ASSAY: NCI tumour cell line growth inhibition, 48 h
Calls of active or inactive are those of the source. Rule as the data show it: active = GI50 up to about 1.1 µM and inactive = higher.

MOLECULE: NC(=S)N1N=C2c3ccccc3CCC[C@H]2[C@@H]1c1ccccc1
ASSAY TARGET: EKVX
GI50: 9.23 µM (inactive)

MOLECULE: O=c1c2cc(I)ccc2nc(Sc2ccc([N+](=O)[O-])cc2[N+](=O)[O-])n1Cc1ccccc1
ASSAY TARGET: EKVX
GI50: 3.55 µM (inactive)

MOLECULE: O=C(O)CCC1c2[nH]c3ccccc3c2CCN1Cc1ccccc1 (stereo not given)
ASSAY TARGET: EKVX
GI50: > 100 µM (inactive)

MOLECULE: Nc1nc2c(c(-c3ccc(F)cc3)n1)COC/C2=C\c1ccc(F)cc1
ASSAY TARGET: EKVX
GI50: 18.6 µM (inactive)

MOLECULE: O=c1[nH]c2ccc([N+](=O)[O-])c(Cl)c2c2ccccc12
ASSAY TARGET: EKVX
GI50: 5.9 µM (inactive)

MOLECULE: O=C1CCC2(CC1)SCCCS2
ASSAY TARGET: EKVX
GI50: > 100 µM (inactive)

MOLECULE: CC(C)(C)OC(=O)[C@@H]1CCC(=O)N1C1(c2ccccc2)c2ccccc2-c2ccccc21
ASSAY TARGET: EKVX
GI50: 82.8 µM (inactive)

MOLECULE: COc1cc2c(cc1OC)C(C1CC1)ON(C)CC2 (stereo not given)
ASSAY TARGET: EKVX
GI50: 58.7 µM (inactive)

MOLECULE: Cc1[nH]c2[nH]c(=S)nc(NC(N)=S)c2c1Cc1ccccc1
ASSAY TARGET: EKVX
GI50: 48.4 µM (inactive)

MOLECULE: COC(=O)C1=COC(OC2OC(CO)C(O)C(O)C2O)C2C3CN4CCc5c([nH]c6ccccc56)C4(CC12)O3 (stereo not given)
ASSAY TARGET: EKVX
GI50: > 100 µM (inactive)
